Test system: MS2 coat protein
Experiment notes: apparent Kd, MS2 coat protein; higher = weaker binding; RNA-MaP array; FMN 200 µM where present
Reported conditions: designed as: OFF switch for flavin mononucleotide; no ligand
Assay metric: apparent Kd (nM)

INSERT INTO assay_data (sequence_record, assay_metric, test_value) VALUES
  ('UUUAACGUAGCAGGAUAUUGACGACUUGGGACAUGAGGAUCACCCAUGUUGCAAGAAGGGCUUAGUCAAGACACGAGCGGUGUU', 'apparent Kd', 6.54),
  ('GCCAGAGCAGGAUAUUCAAUAUCACACAUGAGGAUCACCCAUGUCUAUCGAAAGAUAGAGGGAGAAGGGCUCUGGC', 'apparent Kd', 64.3),
  ('UGUGCGUAUGUGAGGAUAUGCUGGUCCUUGGAUCAGCAGAAGGCACAUGAGGAUCACCCAUGUGGUGUCGUACG', 'apparent Kd', 114),
  ('UGCGACCUAGGAUAUACAUGAGGAUCACCCAUGUGAUUCGGUGGCGCGAUCCUUGAAAGUAGAAGGAGGAGCAA', 'apparent Kd', 40.1),
  ('UUGGAGAUAGGAUAUACGAGGAGAGUUGAGGGAAGGUGAUGACAUGAGGAUCACCCAUGUAGAAGGAUCAGGAG', 'apparent Kd', 144),
  ('UCAGGCUUCGAGAAGGACAUGAAUCGUAGCAUUGCUACGAUGAAACAUACAUGAGGAUCACCCAUGUAGGAUAUCGGAGUCUGC', 'apparent Kd', 5.14),
  ('AAUAUGAGCUGGAAUAAAACCUUGACAUGAGGAUCACCCAUGUAGGAUAUCAGCACGAUAAGUGCUGAGAAGGACAACCAGCUC', 'apparent Kd', 14.4),
  ('UGUCGGAGCAGAGGAUAUUACAUGAGGAUCACCCAUGUAUGAAACAAUAGCUGGAAACAGCAAUGUAAGAAGGCUGCUCCGACA', 'apparent Kd', 5.94),
  ('UAUAUGUCAGGAUAUUAGUUGUGUUAGAAUUUAACUUCUGCUGAGAAGGGACAUGAGGAUCACCCAUGUUCCUC', 'apparent Kd', 15.9),
  ('AACGUGUAAGGAUAUGCUGCUCGUCACGAAAGUGAUGAGUAGCAGAAGGUACAUGAGGAUCACCCAUGUAAAGA', 'apparent Kd', 31.8),
  ('GAUCCGUGGCUUUCGCUUUGUUCACAUGAGGAUCACCCAUGUAGAAGGUAGCGGUUGAAUUUCGCUGAGGAUAUACAUAGGUGC', 'apparent Kd', 13.4),
  ('UCGGCGCGAGGAUAUGCGGUUUGUGCUUUGGGCCCUGGCGUACAUGAGGAUCACCCAUGUAGAAGGCGCGCCGC', 'apparent Kd', 19.5),
  ('AAGUUUAACGAAGGAUAUGGUUACAUGAGGAUCACCCAUGUAUUUUUUGUGAUCUUGAAAUAGUUCCAGAAGGUCGUAUACAUA', 'apparent Kd', 138),
  ('ACAUAGUUAGGAUAUGCUGCUCGUCACUUGCGUGAUGAGUAGCAGAAGGAACAUGAGGAUCACCCAUGUAAAAA', 'apparent Kd', 28.3),
  ('GCUGCGCGAGGAUAUGCGGUUUGUGCUUUGGGCCCUGGCGUACAUGAGGAUCACCCAUGUAGAAGGCGUGUGGG', 'apparent Kd', 43.6),
  ('UCACGGCAUGUAGGAUAUGCAUAGCAUUGCUAUGCAGAAGGACAUGAGGAUCACCCAUGUAUGUAUUCCAUACUAUUCCCGUGU', 'apparent Kd', 7.42),
  ('GGCGGGCACACUGGCCGCUGAAGGAGAAGGCAGUGCACAUGAGGAUCACCCAUGUCGCGUGUGCCUGAGGAUAUCCGUAAAACG', 'apparent Kd', 9.38),
  ('GCAGCUAAUGCAGGAUAUCAGCACGUGUAGUGCUGAGAAGGGCACAUGAGGAUCACCCAUGUGAUCAAUUAAUGUUAAUGCUGC', 'apparent Kd', 18.1);
